assay-target: Neuronal acetylcholine receptor subunit alpha-7 (Rattus norvegicus, UniProt Q05941)
Sequence (Q05941 whole entry): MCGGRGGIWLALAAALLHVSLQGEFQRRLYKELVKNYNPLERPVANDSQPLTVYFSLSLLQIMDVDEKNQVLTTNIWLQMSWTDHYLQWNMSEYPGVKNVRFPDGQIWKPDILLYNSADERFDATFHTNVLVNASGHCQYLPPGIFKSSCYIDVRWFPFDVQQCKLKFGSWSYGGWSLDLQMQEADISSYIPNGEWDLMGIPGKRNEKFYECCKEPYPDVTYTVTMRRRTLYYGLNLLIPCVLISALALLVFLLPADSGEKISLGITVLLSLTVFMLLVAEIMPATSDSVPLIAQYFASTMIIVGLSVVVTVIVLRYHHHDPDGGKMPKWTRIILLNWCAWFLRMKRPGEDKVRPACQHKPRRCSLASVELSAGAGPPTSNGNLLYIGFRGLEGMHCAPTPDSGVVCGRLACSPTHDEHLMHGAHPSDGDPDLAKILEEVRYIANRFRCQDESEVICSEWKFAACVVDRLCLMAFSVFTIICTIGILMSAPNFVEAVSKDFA
procedure-text: Partial agonist activity at rat alpha7 nAChR
observation-type: Ki

Incoming: Quick check: Ki of FC(F)(F)c1ccc2c(c1)[C@@H]1CNC[C@H]2C1 ?
Outgoing: > 300 nM

----------
assay-target: Neuronal acetylcholine receptor; alpha4/beta2 (Homo sapiens, UniProt P17787+P43681)
Sequence (P17787 whole entry): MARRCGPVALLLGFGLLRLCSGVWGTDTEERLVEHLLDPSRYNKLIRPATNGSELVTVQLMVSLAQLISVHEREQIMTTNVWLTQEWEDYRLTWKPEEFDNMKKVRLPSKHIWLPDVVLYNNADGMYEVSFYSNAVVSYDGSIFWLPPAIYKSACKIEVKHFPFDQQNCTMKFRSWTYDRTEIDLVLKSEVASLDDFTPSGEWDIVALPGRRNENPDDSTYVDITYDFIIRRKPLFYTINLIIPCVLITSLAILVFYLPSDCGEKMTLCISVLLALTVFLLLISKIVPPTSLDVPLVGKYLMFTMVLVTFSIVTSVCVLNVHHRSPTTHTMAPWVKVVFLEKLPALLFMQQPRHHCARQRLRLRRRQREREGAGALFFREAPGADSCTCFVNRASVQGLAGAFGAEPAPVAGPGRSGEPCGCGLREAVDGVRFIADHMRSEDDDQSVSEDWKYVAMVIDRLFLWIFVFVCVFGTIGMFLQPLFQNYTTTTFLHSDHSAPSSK
Sequence (P43681 whole entry): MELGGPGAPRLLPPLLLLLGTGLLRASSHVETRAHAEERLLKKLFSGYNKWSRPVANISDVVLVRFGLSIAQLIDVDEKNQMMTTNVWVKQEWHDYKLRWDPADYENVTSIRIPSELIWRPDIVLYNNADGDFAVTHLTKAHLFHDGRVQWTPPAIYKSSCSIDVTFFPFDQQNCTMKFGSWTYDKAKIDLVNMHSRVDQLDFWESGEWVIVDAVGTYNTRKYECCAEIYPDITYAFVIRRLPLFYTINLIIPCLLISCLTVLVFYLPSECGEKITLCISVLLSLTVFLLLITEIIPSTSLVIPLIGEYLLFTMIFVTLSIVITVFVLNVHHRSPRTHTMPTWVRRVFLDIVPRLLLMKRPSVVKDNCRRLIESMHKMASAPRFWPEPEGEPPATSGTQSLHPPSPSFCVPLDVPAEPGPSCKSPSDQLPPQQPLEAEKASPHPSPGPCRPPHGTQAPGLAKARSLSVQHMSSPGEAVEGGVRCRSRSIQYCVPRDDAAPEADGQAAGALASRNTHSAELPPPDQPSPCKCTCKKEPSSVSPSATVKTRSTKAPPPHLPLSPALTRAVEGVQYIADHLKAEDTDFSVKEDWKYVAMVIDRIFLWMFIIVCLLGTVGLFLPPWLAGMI
procedure-text: Activation of alpha4beta2 nAChR low affinity site (unknown origin) expressed in xenopus oocytes by electrophysiology method
Assay type: cell-based
observation-type: pEC50
Give bare numbers, as −log10 of the molar value.

Incoming: Find the measured pEC50: item Clc1cncc(N2CCCNCC2)c1 , target or system Neuronal acetylcholine receptor; alpha4/beta2 (Homo sapiens, UniProt P17787+P43681).
Outgoing: 6.22
